# Tested on: MDA-MB-435
# experimentDescription: NCI tumour cell line growth inhibition, 48 h
The source made the active and inactive calls. Cut-off read from the data, not from the text of the source: active = GI50 up to about 1.1 µM and inactive = higher.
Measured GI50 of individual entries

COc1c2occc2cc2ccc(=O)oc12 [METHOXSALEN] | > 100 µM (inactive)

// sample COC(=O)C(C)(C)OCc1ccc(C2NC(=O)N(c3cccc(Cl)c3)C(=O)N2c2cccc(Cl)c2)cc1 (centres undefined) , its GI50 was 46 µM (inactive)

// sample O[C@@]12Cc3c([nH]c4ccccc34)[C@@H]3Oc4cccc5c4[C@@]31CCN(CC1CC1)[C@@H]2C5 , its GI50 was 15.7 µM (inactive)

// sample CC1=C(O)C(=O)C2=C(C1=O)[C@@H]([C@@H](C)C/C=C/C(C)(C)O)CC[C@@H]2C , its GI50 was 43.2 µM (inactive)

* * *

# Test system: EKVX
# experimentDescription: NCI tumour cell line growth inhibition, 48 h
Activity calls are given as the source filed them. No stated cut-off is given here; in the data, active = GI50 up to about 1.1 µM and inactive = higher.
Allowed answers: active, inactive

Examples from the recorded data:
C/C(=C\c1csc(C)n1)[C@@H]1C[C@@H]2O[C@@H]2CCC[C@H](C)[C@H](O)[C@@H](C)C(=O)C(C)(C)[C@@H](O)CC(=O)O1.C/C(=C\c1csc(C)n1)[C@@H]1C[C@@H]2O[C@]2(C)CCC[C@H](C)[C@H](O)[C@@H](C)C(=O)C(C)(C)[C@@H](O)CC(=O)O1 | active
COC(=O)c1cc2c(cc1CC1Cc3cc4c(cc3C1=O)CCC4)CCC2 (stereo not drawn) | inactive

Now examine the next entry.
-- ask Recorded call for Cn1c(=O)nc2n(-c3ccc(F)c(F)c3)c3ccccc3nc-2c1=O ?
-- reply inactive

* * *

# System: MCF7
# experimentDescription: NCI tumour cell line growth inhibition, 48 h
Calls of active or inactive are those of the source. No stated cut-off is given here; in the data, active = GI50 up to about 1.1 µM and inactive = higher.
Allowed answers: True = active, False = inactive

Examples from the recorded data:
CC1=CC(C)C(C)N(CCNC(=O)Nc2ccccc2)c2ccccc21 (stereo not given) | False
CC(C)(C)c1cc(-c2cc(C(C)(C)C)n(-c3ccccc3)n2)nn1-c1ccccc1 | False
O[C@@]1(c2cccs2)c2cccc(Cl)c2[C@](O)(c2cccs2)c2cccc(Cl)c21 | False
CCc1n[nH]c(=O)n1N1C(=O)C2CCCCC2C1=O (stereo not given) | False
CC(C)=CCC/C(C)=C/CCC1(C)C=Cc2c(c3ccccc3oc2=O)O1 (stereo not given) | False

Now examine the next entry.
-- ask Recorded call for CCCCCCCCCCCNC=O ?
-- reply False

* * *

# Test system: MOLT-4
# experimentDescription: NCI tumour cell line growth inhibition, 48 h
The source made the active and inactive calls. No stated cut-off is given here; in the data, active = GI50 up to about 1.1 µM and inactive = higher.
Measured GI50 of individual entries

CN(CCCNC(=O)c1nn(-c2ccccc2)c2c1Cc1ccccc1-2)CCCNC(=O)c1nn(-c2ccccc2)c2c1Cc1ccccc1-2 | 1.12 µM (active)
COc1cc(C(c2ccccc2)N2C(=O)CC[C@H]2C(=O)O)cc(OC)c1OC (stereo not given in full) | > 100 µM (inactive)

Query Cc1ccc2c(O)c3c(cc2c1)C(=O)c1c2c(cc(O)c1C3=O)C1(C)OC(O2)C(O)C(N(C)C)C1O (stereo not given) on MOLT-4; GI50 returned: 0.124 µM (active)

Query NC1=NN(c2ccccc2)C(=O)C1C(=O)C(=O)Nc1nccs1 (stereo not given) on MOLT-4; GI50 returned: > 100 µM (inactive)

Query COC(=O)C1=NN2c3ccccc3CN([C@@H](C)c3ccccc3)C(=O)[C@@H]2[C@H]1c1ccccc1 on MOLT-4; GI50 returned: 5.66 µM (inactive)
